System: MS2 coat protein
Assay Procedure: apparent KD of MS2 coat protein; higher = weaker reporter binding
Assay Conditions: Eterna round: R107; input ligand: arginine 13.2 mM
Assay Endpoint: apparent KD of MS2 coat protein (nM)
State just the number; it will be interpreted in nM.

[in] I am curious: what apparent KD of MS2 coat protein value has been reported for UCUUGGUCCGCAAGGACCGUGAGUUGCGAUACCAGCACGGUAACGUGCCCUUGGCAGCGCACAUGAGGAUCACCCAUGUGGUGUU [#1 Exclusion - Theophylline A Attempt #15 (HarryS)] ?
[out] 71.6

[in] I am curious: what apparent KD of MS2 coat protein value has been reported for AAAGCCACUUCGGCCGCCACUACAACAUGAGGAUCACCCAUGUACCUCGUGUACGGUCCGAGGAGUAGGACCGGGAAGUGGUGGA [(T1'')-(Trp1)-(Ms2)-(M')-(T2')-(M'')-(Trp2)-(T1')] ?
[out] 94

[in] I am curious: what apparent KD of MS2 coat protein value has been reported for AUCGUACCUAAUGAUACCAGCAAGUGAUCAUAACAUGAGGAUCACCCAUGUAAUCAGUGAUGCCCUUGGCAGCAUAAUCGUUACA [Same State - Theophylline B (Freestyle 2)] ?
[out] 94.7

[in] I am curious: what apparent KD of MS2 coat protein value has been reported for ACAUGAGGAUCACCCAUGUGGCGUCUUGAUACCAGACGAGAAGUAGUCCCUUGGCAGCAAAUACGUGAGGAUCACACAUGUGCGA [cccmullin3] ?
[out] 24.4

[in] I am curious: what apparent KD of MS2 coat protein value has been reported for UUUUUCGUAGGUUAAAGUUUAGAAACUGAAGGAGCGUGGUAAUACACAGGUAGGUCGCAGAUUUUACAUGAGGAUCACCCAUGUU [JR_ExcArginiA_Sub012] ?
[out] 26.9

---

System: MS2 coat protein
Assay Procedure: apparent KD of MS2 coat protein; designed switch direction (-1 OFF switch, 1 ON switch): -1; higher = weaker reporter binding
Assay Conditions: input ligand: none
Assay Endpoint: apparent KD of MS2 coat protein (nM)
State just the number; it will be interpreted in nM.

[in] I am curious: what apparent KD of MS2 coat protein value has been reported for ACAAGCUCUGUGGGUGGGUACAUGAGGAUCACCCAUGUUUUGCUCGUCUUGUGGGCCCGGGCCCGCGGCCCGGGCCC [-41.4, -69.7, A 12%] (Eterna round: R97, puzzle: Sensor, turn-off variant 1) ?
[out] 1180

[in] I am curious: what apparent KD of MS2 coat protein value has been reported for CCAAGCUACUUCAUUAUCCACAUGAGGAUCACCCAUGUCUUGGCAAUUAUGACCUGCCCGUCAGGAGCUCGUCUUAU [Sensor-V1 #39] (Eterna round: R97, puzzle: Sensor, turn-off variant 1) ?
[out] 55.2

---

Tested on: MS2 coat protein
Assay Procedure: apparent KD of MS2 coat protein; designed switch direction (-1 OFF switch, 1 ON switch): -1; higher = weaker reporter binding
Assay Conditions: input ligand: microRNA oligo, concentration not stated
Tick class 1 if apparent KD of MS2 coat protein is 20 nM or greater. Tick class 0 if apparent KD of MS2 coat protein is less than 20 nM.

[in] Does the sequence UUAUUAUAUGUAGGAUAUGCAUAUUAUUAUUAUGCAGAAGGACAUGAGGAUCACCCAUGUAUAUUAUUAUUAUAUAUUAUAUGU [Title] (Eterna round: R96, puzzle: Exclusion NG 1) have recorded apparent KD of MS2 coat protein that is 20 nM or more?
[out] class 1

[in] Does the sequence AAGUCAGCAGGAUAUGCGAUGUUGGGCUAGGUAGCGUGACCACAUGAGGAUCACCCAUGUAGAAGGGCUGGCUA [EX2 Malc#36] (Eterna round: R96, puzzle: Exclusion 2) have recorded apparent KD of MS2 coat protein that is 20 nM or more?
[out] class 1

[in] Does the sequence GUCAGCUCGUGAGGAUAUACAUGAGGAUCACCCAUGUGGUCAAUAGCAGCUUCGGCUGCAUACAUGUAGAAGGCACGAGCUGAC [ENG2/7-A1] (Eterna round: R96, puzzle: Exclusion NG 2) have recorded apparent KD of MS2 coat protein that is 20 nM or more?
[out] class 0

[in] Does the sequence AAGAGGAAUAUAGGAUAUGAGGCUGAGACGGCGUCAGAAGGGUAUCCAGAGUUACAUGAGGAUCACCCAUGUGGUGAUUUCUAA [Exclusion NG 1 V2 1] (Eterna round: R96, puzzle: Exclusion NG 1) have recorded apparent KD of MS2 coat protein that is 20 nM or more?
[out] class 0

[in] Does the sequence UCGUUUCGUGUAGGAUAUUGGCCUUCUCUGGGUCGAGAAGGACAUGAGGAUCACCCAUGUAUGUUAUUAUCACGCGUGGCGCAU [Design 83] (Eterna round: R96, puzzle: Exclusion NG 1) have recorded apparent KD of MS2 coat protein that is 20 nM or more?
[out] class 0

[in] Does the sequence UUUGUUUAUGUAGGAUAUGCCUGGCGUGCCUUUGCAGAAGGACAUGAGGAUCACCCAUGUAACAUGAGGCUCACCCAUGUCGCG [salish99_ExNG1_r04_112] (Eterna round: R96, puzzle: Exclusion NG 1) have recorded apparent KD of MS2 coat protein that is 20 nM or more?
[out] class 1

[in] Does the sequence UACAUGAGGAUCACCCAUGUUUUGUCGUGUAUGGUAUUUAUCUAGGAUAUCAAUGGAUUUAUUUAUGAGAAGGAGAAUAUUAAU [JMF's solution 38] (Eterna round: R96, puzzle: Exclusion NG 3) have recorded apparent KD of MS2 coat protein that is 20 nM or more?
[out] class 1
